Test: self-splicing fitness, log relative to wild type (ln ratio); higher = more splicing; Tetrahymena group I intron in knt gene, E. coli kanamycin selection, DiMSum; sequences stand for … in CUCUCU…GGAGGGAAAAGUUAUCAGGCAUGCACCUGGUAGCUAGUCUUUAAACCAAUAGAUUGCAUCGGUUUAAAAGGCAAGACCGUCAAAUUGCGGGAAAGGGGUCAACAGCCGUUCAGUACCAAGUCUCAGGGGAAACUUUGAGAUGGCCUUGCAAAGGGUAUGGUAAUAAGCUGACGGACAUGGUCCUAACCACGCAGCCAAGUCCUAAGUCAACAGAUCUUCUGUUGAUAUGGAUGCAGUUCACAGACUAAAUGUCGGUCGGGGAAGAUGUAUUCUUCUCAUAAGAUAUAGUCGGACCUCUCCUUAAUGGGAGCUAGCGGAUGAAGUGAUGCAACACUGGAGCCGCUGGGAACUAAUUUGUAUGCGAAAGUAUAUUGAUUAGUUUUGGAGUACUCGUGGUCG;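 note: selection with 25 µg/mL kanamycin versus none on LB agar overnight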
Conditions: 37 °C
quantityMeasured: self-splicing fitness (ln)
Answer with a number only.

Below: 5 sequences and their reported self-splicing fitness (ln).
AAUCAGCAAUAUUACGUCAU :: 0.337
UCCGAGCAAUAUUACGGGCC :: -2.94
UAAGAGCAAUAUUACGGGCA :: -1.99
UGCCAGCAAUAUUACGCCAG :: -2.39
ACCCAGCAAUAUUACGAAAC :: -1.04

Find the measured self-splicing fitness (ln) of CUAGAGCAAUAUUACGGAGG and report it.
-1.98

Find the measured self-splicing fitness (ln) of CCUGAGCAAUAUUACGAGUG and report it.
-0.572

Find the measured self-splicing fitness (ln) of CCGAAGCAAUAUUACGCCAU and report it.
-3.25

Find the measured self-splicing fitness (ln) of UCCUAGCAAUAUUACGAGCG and report it.
-1.15

Find the measured self-splicing fitness (ln) of CGCUAGCAAUAUUACGUAAG and report it.
-0.0723

Find the measured self-splicing fitness (ln) of CGGGAGCAAUAUUACGCUAU and report it.
-2.64

Find the measured self-splicing fitness (ln) of GGUUAGCAAUAUUACGGAGU and report it.
-0.724

Find the measured self-splicing fitness (ln) of GUACAGCAAUAUUACGCAUU and report it.
-0.835

---

self-splicing fitness (ln) for assorted sequences
Assay: self-splicing fitness, log relative to wild type (ln ratio); higher = more splicing; Tetrahymena group I intron in knt gene, E. coli kanamycin selection, DiMSum; sequences stand for … in CUCUCU…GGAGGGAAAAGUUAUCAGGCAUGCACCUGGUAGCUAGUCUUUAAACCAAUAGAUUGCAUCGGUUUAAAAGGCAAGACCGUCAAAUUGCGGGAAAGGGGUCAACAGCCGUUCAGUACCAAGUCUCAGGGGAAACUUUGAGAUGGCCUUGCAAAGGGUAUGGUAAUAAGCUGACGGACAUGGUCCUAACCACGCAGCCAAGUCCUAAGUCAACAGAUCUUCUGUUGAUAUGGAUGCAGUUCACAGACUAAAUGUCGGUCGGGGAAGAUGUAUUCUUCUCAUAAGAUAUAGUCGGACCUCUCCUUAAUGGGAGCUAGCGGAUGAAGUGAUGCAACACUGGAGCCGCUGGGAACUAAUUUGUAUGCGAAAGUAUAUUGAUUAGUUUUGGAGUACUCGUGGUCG
Conditions: 30 °C
Answer with a number only.

Below: 2 sequences and their reported self-splicing fitness (ln).
AUGCAGCAAUAUUACGCUUA :: -1.26
GAUCAGCAAUAUUACGGCCG :: -0.635

Find the measured self-splicing fitness (ln) of AUCCAGCAAUAUUACGAACC and report it.
-0.394

Find the measured self-splicing fitness (ln) of GAGGAGCAAUAUUACGUUAG and report it.
-4

Find the measured self-splicing fitness (ln) of GGCCAGCAAUAUUACGUCAC and report it.
-2.59
